# study-system: human IL-4Rα on cells (human, UniProt P24394 26-825)
# experiment-summary: cell-based or functional assay
readout-type: IC50(pM), hIL-13 Blocking Activity, TF-1 proliferation inhibition assay
Just the number please, in pM, no unit attached.

Worked examples follow.
binder	measured-result
m8 (antibody, human IgG4 S228P, kappa, V domains shown, also called m8 molecule; anti-IL-4R antibody m8) VH: QVQLVQSGAEVKKPGASVKVSCKASGYTFTTYYIYWVRQAPGQGLEWMGGSNPSTGGTLDNEKFKTRVTMTVDKSTSTAYMELSSLRSEDTAVYYCTRSGRYAPFTYWGQGTLVTVSS VL: DIQMTQSPSSLSASVGDRVTITCKASQDVSTSVAWYQQKPGKAPKLLIYSASYRFTGVPSRFSGSGSGTDFTFTISSLQPEDFATYYCQHYSTTPFTFGQGTKLEIKR	125
m21 (antibody, V domains shown, captured by anti-human Fc); also called m21 molecule) VH: QVQLVQSGAEVKKPGASVKVSCKASGYTFTTYYIYWVRQAPGQGLEWMGGSNPSTGGTLENEKFKTRVTMTVDKSTSTAYMELSSLRSEDTAVYYCTRSGRYAPFTYWGQGTLVTVSS VL: DIQMTQSPSSLSASVGDRVTITCKASQDVSTSVAWYQQKPGKAPKLLIYSASYRFTGVPSRFSGSGSGTDFTFTISSLQPEDFATYYCVHYSTTPFTFGQGTKLEIK	66.5

Here is another binder to look at.
input: Sample m27 (antibody, V domains shown, captured by anti-human Fc); also called m27 molecule) VH: QVQLVQSGAEVKKPGASVKVSCKASGYTFTTYYIYWVRQAPGQGLEWMGGSNPSTGGTLENEKFKTRVTMTVDKSTSTAYMELSSLRSEDTAVYYCTRSGRYATFTYWGQGTLVTVSS VL: DIQMTQSPSSLSASVGDRVTITCKASQDVSTSVAWYQQKPGKAPKLLIYSASYRFTGVPSRFSGSGSGTDFTFTISSLQPEDFATYYCVHYSTTPFTFGQGTKLEIK — what was its IC50(pM), hIL-13 Blocking Activity, TF-1 proliferation inhibition assay?
output: 58.8

Origin of measurements: patent EP4814012A1
